For each record, write down the corresponding IC50.
Target: UniProtKB P00734
Assay: Thrombin 1536 HTS Dose Response Confirmation. [Related pubchem assays: 1046 (Thrombin 1536 HTS; hits were confirmed in this assay)]
Format: functional
The source made the active and inactive calls.

Please look up its IC50: CCCC(=O)n1nc(-c2ccc(Cl)cc2)nc1SC 3.57 µM (active)

Please look up its IC50: CC(=O)c1ccc(O)c(CSC2=NCCS2)c1 > 50 µM (not active)

Please look up its IC50: Cc1ccc(C)c(S(=O)(=O)ON2C(=O)c3ccccc3C2=O)c1 1.57 µM (active)

Please look up its IC50: O=C(Nc1nc(-c2cccs2)cs1)c1ccco1 > 50 µM (not active)

Please look up its IC50: O=C1C=C(O)c2c(O)cccc2C1=O > 50 µM (not active)

Please look up its IC50: COc1cccc(C(=O)Nc2n[nH]c(SCc3ccc(Cl)cc3)n2)c1 2.94 µM (active)

Please look up its IC50: COc1ccc(CNc2nc(-c3cccnc3)nn2C(C)=O)cc1 0.0252 µM (active)

---

Biological target: UniProt Q9Y4P1
Sequence (Q9Y4P1 whole entry): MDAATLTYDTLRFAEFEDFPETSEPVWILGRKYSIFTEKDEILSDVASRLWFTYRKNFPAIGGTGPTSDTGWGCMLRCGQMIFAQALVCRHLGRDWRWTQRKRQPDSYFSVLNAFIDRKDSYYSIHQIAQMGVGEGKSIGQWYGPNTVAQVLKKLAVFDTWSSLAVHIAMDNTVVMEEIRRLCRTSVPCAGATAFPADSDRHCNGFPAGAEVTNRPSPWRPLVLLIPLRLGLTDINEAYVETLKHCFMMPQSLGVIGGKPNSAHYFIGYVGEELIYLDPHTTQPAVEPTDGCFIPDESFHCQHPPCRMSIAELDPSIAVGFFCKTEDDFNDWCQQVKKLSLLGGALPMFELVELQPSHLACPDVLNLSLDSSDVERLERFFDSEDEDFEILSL
Assay type: functional
Active and inactive are the calls of the source.
observed.property: IC50

Please look up its IC50: COC1=CC(=O)c2c(ccc3ncnc(N)c23)C1=O 6.81 µM (active)

Please look up its IC50: Cc1ccc(C(=O)O)cc1/N=C/c1cc(Br)cc(Br)c1O 9.89 µM (active)

Please look up its IC50: c1ccc(-c2ccc(C(c3ccccc3)n3ccnc3)cc2)cc1 (configuration not stated) 8.5 µM (active)

Please look up its IC50: CN(C)Cc1ccc(F)cc1Sc1cc(Cl)ccc1Cl 16.9 µM (active)

Please look up its IC50: CCC1=NN(C(=O)c2cccc(Br)c2)C(O)(c2ccc(Br)cc2)C1 (configuration not stated) 12.1 µM (active)

Please look up its IC50: NC(=O)CSc1nc2cc([N+](=O)[O-])ccc2[nH]1 12.4 µM (active)

Please look up its IC50: COc1cc(NS(=O)(=O)c2ccc(NC(=S)NC(=O)/C=C/c3ccco3)cc2)ncn1 6 µM (active)

---

Target: FAD-linked sulfhydryl oxidase ALR (Homo sapiens)
Sequence (P55789 whole entry): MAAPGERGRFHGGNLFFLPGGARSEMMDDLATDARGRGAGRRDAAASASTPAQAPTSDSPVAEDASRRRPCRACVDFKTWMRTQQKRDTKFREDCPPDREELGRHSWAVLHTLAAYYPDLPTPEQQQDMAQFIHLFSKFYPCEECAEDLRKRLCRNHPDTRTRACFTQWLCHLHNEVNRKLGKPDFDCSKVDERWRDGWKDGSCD
Test: ALR-catalysed DTT oxidation blockers – biochemical, H2O2 detection, luminescence, cherry-pick, dose response (AID 493248)
The source made the active and inactive calls.
Use one of these outcomes when replying: active, inactive

What outcome does the record of this test show for [O-][n+]1onc2c3c4c(n(O)c3ccc21)CCCC4 ? active

What outcome does the record of this test show for COc1cc(C(=O)Nc2ccc(N(C)C)cc2)cc(OC)c1OC ? active

What outcome does the record of this test show for CN(C)c1ccc(CNC(=O)C2CCN(S(=O)(=O)c3ccc4c(c3)CCCC(=O)N4)CC2)cc1 ? active

What outcome does the record of this test show for Cc1ccn2c(NC(C)(C)C)c(-c3cccs3)nc2c1 ? active

What outcome does the record of this test show for O=C1NN(c2ccccc2)C(=O)/C1=C/c1ccc(-c2cccc(C(=O)O)c2)o1 ? active

What outcome does the record of this test show for S=c1[nH]nc(-c2ccco2)n1Cc1ccccc1 ? active

What outcome does the record of this test show for CCN(CC)c1ccc(/C=N\NC(N)=O)cc1 ? active

What outcome does the record of this test show for COc1ccc(/C=C2\C(=O)ON=C2c2ccccc2)cc1 ? active

What outcome does the record of this test show for Cc1cc(C)cc(N2C(=O)NC(=O)/C(=C\C=C\c3ccco3)C2=O)c1 ? active

What outcome does the record of this test show for O=C1NN(c2ccc(Cl)c(Cl)c2)C(=O)/C1=C/c1ccc(-c2ccccc2C(=O)O)o1 ? active

What outcome does the record of this test show for O=C(C1CCCN(S(=O)(=O)c2c[nH]cn2)C1)N1CCN(c2ccc(Cl)cc2)CC1 (stereo unspecified) ? inactive
